- Tested on: AncSZ
- assay_method_text: phosphorylation enrichment, bacterial display (enrichment ratio); higher = better substrate or ligand; peptides without Tyr show the background
This section presents sequences with their documented phosphorylation enrichment values.

sequence_text	assayed_system	phosphorylation enrichment
SVVVPDEPPEV [TP53_Y220_Y220D]	AncSZ	1.33
KMKGDYFRSLA [YWHAG_Y130_Y133S_YF]	AncSZ	0.676
SEPSGYQDNIA [DES_Y363_A360P]	AncSZ	1.02
MNKNAYHNVTT [ST3GAL6_Y306_A311T]	AncSZ	0.497
GDGRFYMMEAI [PGM1_Y66_K68M]	AncSZ	1.04
ETRWKYHFEVV [GCNT3_Y267]	AncSZ	1.42
KKFVPYYDLFM [IPO5_Y530_E525K]	AncSZ	0.895

* * *

- assayed_system: Jak2 (UniProt O60674)
- Sequence (O60674 whole entry, looked up): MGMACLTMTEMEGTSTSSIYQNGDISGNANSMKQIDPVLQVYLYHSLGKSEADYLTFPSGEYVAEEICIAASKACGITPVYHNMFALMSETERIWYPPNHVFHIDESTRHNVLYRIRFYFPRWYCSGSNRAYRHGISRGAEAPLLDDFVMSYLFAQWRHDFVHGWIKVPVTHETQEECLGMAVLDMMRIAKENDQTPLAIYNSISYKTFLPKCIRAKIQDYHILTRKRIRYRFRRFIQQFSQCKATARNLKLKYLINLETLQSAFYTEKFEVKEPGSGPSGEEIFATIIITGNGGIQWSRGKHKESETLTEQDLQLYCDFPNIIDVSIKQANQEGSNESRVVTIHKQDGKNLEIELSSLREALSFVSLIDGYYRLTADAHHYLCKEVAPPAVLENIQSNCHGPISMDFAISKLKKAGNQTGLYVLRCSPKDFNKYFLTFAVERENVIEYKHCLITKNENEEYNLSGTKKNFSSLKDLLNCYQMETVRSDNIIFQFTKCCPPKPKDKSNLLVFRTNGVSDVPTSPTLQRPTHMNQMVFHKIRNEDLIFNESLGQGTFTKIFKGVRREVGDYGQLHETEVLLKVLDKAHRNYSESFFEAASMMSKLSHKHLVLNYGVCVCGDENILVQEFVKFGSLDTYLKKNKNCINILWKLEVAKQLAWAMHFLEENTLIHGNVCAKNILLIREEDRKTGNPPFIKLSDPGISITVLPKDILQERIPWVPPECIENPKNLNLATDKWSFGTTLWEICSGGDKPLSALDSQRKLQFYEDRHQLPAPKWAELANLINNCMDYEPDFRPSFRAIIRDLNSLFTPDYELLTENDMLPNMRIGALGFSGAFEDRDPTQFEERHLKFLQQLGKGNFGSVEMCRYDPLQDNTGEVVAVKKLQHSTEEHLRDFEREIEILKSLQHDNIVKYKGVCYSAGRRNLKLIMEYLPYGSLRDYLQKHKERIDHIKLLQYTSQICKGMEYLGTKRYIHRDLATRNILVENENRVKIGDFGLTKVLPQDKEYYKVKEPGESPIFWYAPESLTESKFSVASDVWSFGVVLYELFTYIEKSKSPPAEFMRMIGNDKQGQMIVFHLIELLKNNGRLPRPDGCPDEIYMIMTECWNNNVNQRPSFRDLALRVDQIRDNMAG
- assay_method_text: phosphorylation enrichment, bacterial display (enrichment ratio); higher = better substrate or ligand; peptides without Tyr show the background
readout_name: phosphorylation enrichment

sequence_text	result
INNIDYYKKTT [FGFR2_Y656]	0.618
LTAEVYFPSIK [C5orf64_Y60]	0.996
HRGFLYLAIEY [TEK_Y899_Y897F]	1.49
GIVEDYRPRFY [ACVRL1_Y421_P424R]	0.619
LPKVSCVKAID [GLRA1_Y307_Y307C]	0.945
FSMGCYEFSLG [HMGCL_Y198_I200F_YF]	1.2
CTTIHYNFMCD [TP53_Y234_N239D_YF]	1.03
QRPFVYFFSFL [PTEN_Y176_R173P_YF]	1.33
CTLTHYKSAVK [ASNS_Y555_R550C]	0.689
SVVVRYEPPEV [TP53_Y220_P219R]	0.705
LSTPEYGPKLK [TBC1D14_Y46_A43T]	0.569
PPQFSYGLQTQ [SRA1_Y35]	0.433
ATYRGYDSDNP [MMUT_Y146_H143Y]	0.658
FGSSSSGGAGG [RPA2_Y14_Y14S_YF]	0.669
AAVPAYDKIQV [STXBP2_Y401_R405Q]	1.06
EAIMTYVSSFF [ACTN4_Y260_K255E_YF]	0.9
QNTGDYCDLYG [PTPN11_Y62_Y63C]	1.35
RSAGKDDVYLI [MECP2_Y120_Y120D]	0.658
YFRDGYMPRQY [GSS_Y270]	0.928
GEDEPYSEPFA [APBA1_Y183_YF]	1.02
ERNAHYRTPKI [PTK2B_Y699_R698H]	0.559
ASENVYVNIAH [CTSC_Y150]	0.986
ALRHYYKLNII [ETV6_Y402]	1.3
RYMELYDLNRD [BBS2_Y648]	1.4
KTKIGYSPLHQ [ANK1_Y735_L733I]	0.49
TQTPPYVKKHP [LARP1B_Y457]	0.593
EFNLMYHGTKE [IRF6_Y97_D98H]	0.744
KEAALYPHLLP [SQSTM1_Y383_P387L]	0.649
CQAHGYFCQLI [STK11_Y156]	0.751

* * *

- System: AncSZ
- assay_method_text: phosphorylation enrichment, bacterial display (enrichment ratio); higher = better substrate or ligand; peptides without Tyr show the background
Give true when the value for phosphorylation enrichment is at least 1. Give false when it is less.

sequence_text	cat
NTGFFYDLFGG [PTPN11_Y63_D61Y_YF]	true
PVQDAYQKVVA [HBB_Y131_A129D]	false
KNKNRYKNVLP [PTPN11_Y279_I282V]	false
PQDVTYAQLHS [LILRB4_Y412]	false
SAEKAYHEQFS [TUBA1A_Y282_L286F]	false
VGNAAYQAGSL [STK36_Y1181_P1185S]	false
DPKFHYDNTAG [KDR_Y1214]	false
SETDDYAEIID [PTK2_Y397]	true
GTFEDYVEGLR [MYL6_Y89_YF]	true
VITDYYVDMKF [MPP4_Y567]	true
VRFMADTDETF [F8_Y450_Y450D]	true
EFISEYCGEII [EZH2_Y641]	true

* * *

- assayed_system: Hck (UniProt P08631)
- Sequence (P08631 whole entry, looked up): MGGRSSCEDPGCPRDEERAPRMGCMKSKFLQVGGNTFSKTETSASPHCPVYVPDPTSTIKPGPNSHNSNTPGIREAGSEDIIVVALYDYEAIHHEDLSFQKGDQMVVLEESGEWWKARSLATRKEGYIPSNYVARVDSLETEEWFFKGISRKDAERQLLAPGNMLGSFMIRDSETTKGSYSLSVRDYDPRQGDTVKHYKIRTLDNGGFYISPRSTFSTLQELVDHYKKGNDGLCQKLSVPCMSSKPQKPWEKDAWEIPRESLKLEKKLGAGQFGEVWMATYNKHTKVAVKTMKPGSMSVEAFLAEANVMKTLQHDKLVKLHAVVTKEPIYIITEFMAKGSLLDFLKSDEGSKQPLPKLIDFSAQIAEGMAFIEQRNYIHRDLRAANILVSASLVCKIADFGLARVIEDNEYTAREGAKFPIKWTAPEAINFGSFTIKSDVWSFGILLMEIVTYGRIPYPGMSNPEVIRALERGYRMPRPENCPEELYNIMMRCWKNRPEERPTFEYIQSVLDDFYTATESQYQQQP
- assay_method_text: phosphorylation enrichment, bacterial display (enrichment ratio); higher = better substrate or ligand; peptides without Tyr show the background
Measured phosphorylation enrichment by item
readout_name: phosphorylation enrichment

sequence_text	recorded_number
VGNAAYQAGSL [STK36_Y1181_P1185S]	0.37
ADLAKYICENR [ALB_Y287_Q292R]	0.447
TNQVIYLNPPI [DYNC1H1_Y970]	1.45
TQPSPYAVFLF [RPGRIP1_Y823_R827L_YF]	3.69
AAFNKYDQERF [CDC73_Y293_R292K_YF]	0.375
SLNEEYAKNKT [MSH2_Y563_T564A]	0.362
ETAENYLGHTA [HSPA9_Y181]	0.47
YDAHNYHPLPV [OAT_Y55_G51D]	2.01
TEVRRYVLPLN [RPE65_Y368_P363T]	0.407
QMVGMYAFSFM [AVPR2_Y124_S126F_YF]	1.06
HLVLNYGVCFC [JAK2_Y613_V617F]	1.04
IVEFAYNDKAI [PUM3_Y259_YF]	0.52
CHRQLYHKCTH [F12_Y58_Y53C]	0.471

* * *

- assayed_system: EPHB1 (UniProt P54762)
- Sequence (P54762 whole entry, looked up): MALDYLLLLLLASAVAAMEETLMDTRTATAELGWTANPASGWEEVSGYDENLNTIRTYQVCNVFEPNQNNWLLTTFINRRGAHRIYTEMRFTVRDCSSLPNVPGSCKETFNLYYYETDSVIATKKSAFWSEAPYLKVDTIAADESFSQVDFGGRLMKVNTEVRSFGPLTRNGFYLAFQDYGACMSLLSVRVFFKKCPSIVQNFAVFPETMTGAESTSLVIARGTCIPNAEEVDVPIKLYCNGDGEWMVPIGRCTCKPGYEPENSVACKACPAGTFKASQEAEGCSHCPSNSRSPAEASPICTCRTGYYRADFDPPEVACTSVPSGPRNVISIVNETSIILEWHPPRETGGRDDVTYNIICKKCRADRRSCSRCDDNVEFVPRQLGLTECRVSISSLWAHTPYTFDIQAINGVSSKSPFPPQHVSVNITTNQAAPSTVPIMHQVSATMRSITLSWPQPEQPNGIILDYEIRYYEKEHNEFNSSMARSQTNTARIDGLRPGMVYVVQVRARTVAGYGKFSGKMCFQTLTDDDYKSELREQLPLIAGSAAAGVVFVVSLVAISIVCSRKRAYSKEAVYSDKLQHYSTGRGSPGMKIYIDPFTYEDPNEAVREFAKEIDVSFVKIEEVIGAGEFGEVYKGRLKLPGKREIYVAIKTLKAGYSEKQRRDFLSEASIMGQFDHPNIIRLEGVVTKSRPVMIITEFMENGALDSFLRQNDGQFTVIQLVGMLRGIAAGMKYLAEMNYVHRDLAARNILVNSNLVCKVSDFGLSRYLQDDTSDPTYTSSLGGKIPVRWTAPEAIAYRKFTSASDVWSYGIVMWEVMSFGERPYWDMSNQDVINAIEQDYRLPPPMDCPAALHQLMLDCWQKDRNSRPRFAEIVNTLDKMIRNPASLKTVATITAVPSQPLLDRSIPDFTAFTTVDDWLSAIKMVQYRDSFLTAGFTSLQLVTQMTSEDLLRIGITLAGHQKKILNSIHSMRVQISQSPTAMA
- assay_method_text: phosphorylation enrichment, bacterial display (enrichment ratio); higher = better substrate or ligand; peptides without Tyr show the background

sequence_text	phosphorylation enrichment
VPHECYAKVFD [ALB_Y394_D389V]	0.647
SVESPYGSVTF [NDRG2_Y47_T45S]	0.501
ATFRGYDSDNP [MMUT_Y146_H143Y_YF]	0.424
SSDKVCAHQMV [MLH1_Y379_Y379C]	0.379
GQDLFYEDEDL [PACS1_Y303]	0.922
WTAHSYRMGST [ARHGEF7_Y785]	0.46
ETAENYLGHTA [HSPA9_Y181]	0.43

* * *

Recorded SH2 binding enrichment by entry
- assayed_system: Grb2 SH2 (UniProt P62993)
- Sequence (P62993 whole entry, looked up): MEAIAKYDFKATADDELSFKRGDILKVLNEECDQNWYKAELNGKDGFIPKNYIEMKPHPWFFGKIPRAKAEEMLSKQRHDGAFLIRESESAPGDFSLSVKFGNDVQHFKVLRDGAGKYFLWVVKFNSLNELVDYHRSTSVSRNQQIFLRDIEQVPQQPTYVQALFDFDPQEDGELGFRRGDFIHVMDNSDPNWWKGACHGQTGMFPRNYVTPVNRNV
- assay_method_text: SH2 binding enrichment of the phosphorylated peptide, bacterial display (enrichment ratio); higher = better substrate or ligand; peptides without Tyr show the background

sequence_text	SH2 binding enrichment
FPPTHYIRRMP [SLC4A11_Y820_V824M_YF]	0.982
ELTSVYDSRAR [SENP1_Y349]	0.761
GIVEDYRPRFY [ACVRL1_Y421_P424R]	0.882
YVPSFYHAFSG [ACTN4_Y265_S262P]	1.2
PVPKTYDMLKA [PKP2_Y108]	0.806
TDGIAYEFRVT	0.577
RSAGKDDVYLI [MECP2_Y120_Y120D]	0.854

* * *

- assayed_system: c-Src SH2
- assay_method_text: SH2 binding enrichment of the phosphorylated peptide, bacterial display (enrichment ratio); higher = better substrate or ligand; peptides without Tyr show the background
Criterion met means recorded SH2 binding enrichment is 0.5 or above; Criterion not met means it is below 0.5.

sequence_text	cat
CQKRKYIEIDS [SDAD1_Y580_S575C]	Criterion met
VGSEDYGWDLT [SPTAN1_Y1792_R1794W]	Criterion met
PDGREYIYVDP [PDGFRA_Y572_H570R]	Criterion not met
RFLFFYSFLLK [PTEN_Y178_V175L_YF]	Criterion met
LGSVVYAQSKE [KCNQ2_Y226_H228Q]	Criterion met
GCVRMYELVHR [GLE1_Y135]	Criterion met
FSPGSNERETF [NF1_Y2192_Y2192N]	Criterion not met
DLQDENDFKCK [STAT1_Y170_Y170N]	Criterion not met
LSDGPYSSPYE [EPOR_Y485_N487S]	Criterion met
KGERGYPGTPG [COL4A1_Y348]	Criterion not met
YDAHNYHPLPV [OAT_Y55_G51D]	Criterion met
RESYKYLPSSL [CXXC1_Y218_F219L]	Criterion met

* * *

- assayed_system: Hck (UniProt P08631)
- assay_method_text: phosphorylation enrichment, bacterial display (enrichment ratio); higher = better substrate or ligand; peptides without Tyr show the background
readout_name: phosphorylation enrichment

sequence_text	readout_name	recorded_number
CTTIHYNFMCH [TP53_Y234_N239H_YF]	phosphorylation enrichment	0.441
GMAHNYRNRSQ [AASS_Y188_S191R]	phosphorylation enrichment	0.523
TNLVPYPCIHF [TUBA1A_Y262_R264C]	phosphorylation enrichment	0.534
LVRPPYSFSAL [FOXI1_Y126_YF]	phosphorylation enrichment	0.423
REGAKYVSHSA [ASS1_Y113_G117S]	phosphorylation enrichment	0.457
RRNSPYSQTMK [TET2_Y819]	phosphorylation enrichment	0.913
PANTVYSTVEI [SLAMF7_Y304]	phosphorylation enrichment	9.13
IKSSIYDNRNE [ARAP2_Y380_K384N]	phosphorylation enrichment	0.696
SSWKLYPRMLR [HAO1_Y50_R46S]	phosphorylation enrichment	0.433
RASGIYFVPKG [APBB1IP_Y340_YF]	phosphorylation enrichment	8.1
PMQMPYDSRWE [PDGFRA_Y582_L580M]	phosphorylation enrichment	0.794
KLQKFYRKNPD [EHHADH_Y683_Q685K_YF]	phosphorylation enrichment	0.402
RRNTPYSQTMK [TET2_Y819_S817T]	phosphorylation enrichment	0.367
CTTIHYNYMCN [TP53_Y234]	phosphorylation enrichment	0.482
